test system: ACHN; test: NCI tumour cell line growth inhibition, 48 h
The source made the active and inactive calls. Rule as the data show it: active = GI50 up to about 1.1 µM and inactive = higher.
Result category, one only: active, inactive

Each molecule tested received a call. Report the one for "CC1(C)OP(=O)(O)CC1=O" .
inactive

Each molecule tested received a call. Report the one for CC1C(O)Oc2cc3c(cc2C1c1ccccc1O)OCO3 (centres undefined) .
inactive

Each molecule tested received a call. Report the one for "COc1cccc2nc3c(C(=O)NCCN(C)C)cccc3cc12" .
active

Each molecule tested received a call. Report the one for CC1=NN(C(=O)Nc2ccccc2)C(=O)C2CCC(=O)N12 (centres undefined) .
inactive

Each molecule tested received a call. Report the one for "Nc1nc(Nc2ccc(Cl)cc2)sc1C(=O)c1cccs1" .
inactive

Each molecule tested received a call. Report the one for COc1cc2cc(C(=O)N3CC(CCl)c4c3cc(O)c3ccccc43)[nH]c2c(OC)c1OC (centres undefined) .
active

Each molecule tested received a call. Report the one for "COC(=O)CCC(=O)c1ccc2c(c1)CC1(Cc3ccccc3C1)C2" .
inactive

Each molecule tested received a call. Report the one for "Cc1nc2ccccc2c(=O)n1NC(=O)Cc1ccccc1" .
inactive

Each molecule tested received a call. Report the one for CCCCCCCCCCCCCCCC(=O)NCC(COP(=O)([O-])OCC[N+](C)(C)C)OCC (centres undefined) .
inactive

Each molecule tested received a call. Report the one for "CN1CCN(c2ccc([N+](=O)[O-])c3no[n+]([O-])c23)CC1" .
active

Each molecule tested received a call. Report the one for S=C1c2cc(Cl)ccc2N=C(NC2CCCC2)C2CSCN12 (centres undefined) .
inactive

Each molecule tested received a call. Report the one for "Cc1cc(N(CCCCl)CCCCl)ccc1/C=N/c1cccc(Cl)c1" .
inactive

Each molecule tested received a call. Report the one for "COc1ccc(NC(=O)CC/C(CC(=O)c2ccccc2Cl)=N\Nc2nnc(C)n2N)cc1" .
inactive

Each molecule tested received a call. Report the one for "Nc1nc(Cl)cc(NCC2(CO)CC=CC2)n1" .
inactive
